# experimentalDetails: protein stability index of a GFP-peptide fusion (yeast GPS) (PSI 1-4); higher = more stable; sorted into four equal gates, so the index is relative within each strain
# settings: doa10∆
For each of the sequences below, state its protein stability index.
Reply: number alone, nothing else.

query: Quick one: protein stability index of QIVPYIEKLTDGHLRAP [BRR2] ?
result: 3.04

query: Again, but for GLHKFVKGDLLQEAIDF [PRE10]
result: 2.93

query: Again, but for EQPCVDIISGKIHSILP [YJR042W/NUP85]
result: 3.02

----------
# experimentalDetails: protein stability index of a GFP-peptide fusion (yeast GPS) (PSI 1-4); higher = more stable; sorted into four equal gates, so the index is relative within each strain
# settings: ubr1∆
For each of the sequences below, state its protein stability index.
Reply: number alone, nothing else.

query: Quick one: protein stability index of KMWFDVQLRYGDYDSHD [PRP8] ?
result: 3.06

query: Again, but for NTLLQQQNYSKVLLPSI [SWI1]
result: 3.09

query: Again, but for EFTSKIGFTIKEYENHS [SMC1]
result: 3.01

query: Again, but for GVDNLRRMGILKKILDQ [RPO31]
result: 2.96

query: Again, but for DSSMTTVQENELLKSSL [AAR2]
result: 2.94

query: Again, but for TRKAMLDPLEVHMLDFP [PRP8]
result: 3

----------
# experimentalDetails: protein stability index of a GFP-peptide fusion (yeast GPS) (PSI 1-4); higher = more stable; sorted into four equal gates, so the index is relative within each strain
# settings: san1∆
outcomeMeasure: protein stability index
Reply: number alone, nothing else.

query: Quick one: protein stability index of LLVIGGNQRKILQYSRT [YJR042W/NUP85] ?
result: 1.46

query: Again, but for ELTSFSSQPLEPLSDTE [DSN1]
result: 3.29

query: Again, but for NEYPVADAVTKDLKLRR [REC8]
result: 3.28

query: Again, but for VSLPEGSFKRVKPQYDE [BRR2]
result: 3.13

query: Again, but for VNYNSDMIKCFLPKLNS [NUT1]
result: 2.06

query: Again, but for SSLLYTYDENDDFFKEL [ESC2]
result: 2.62

query: Again, but for KSPEQCILRFLQLPIED [SWI3]
result: 1.76

query: Again, but for MKHLGRSEGNPVIGVFQ [FAS2]
result: 2.9

query: Again, but for TPSQIGVLLRDAHGVTQ [RPS13]
result: 1.91

query: Again, but for KAISVGANTSAAQTLLQ [PRE9]
result: 2.77

query: Again, but for KDFVTMAIEIINDIRDD [YCG1]
result: 2.17

query: Again, but for TIYYVDSDGTRLKGDIF [PRE2]
result: 2.97

query: Again, but for SKVVDDMPSLRLIDLSG [GRR1]
result: 2.72

query: Again, but for TTLKSVTIASEIYYDPD [RPO21]
result: 2.82

query: Again, but for LRRGNYAQRIGSGAPVY [HTA1]
result: 2.4

query: Again, but for QSSGKLKEYLDLVARTA [YDL116W/NUP84]
result: 3.01

query: Again, but for YVPTRNTFNYDVKISND [RPN4]
result: 2.29

query: Again, but for LNHRNKNQHRAASWYGS [RMP1]
result: 3.17

query: Again, but for ECPLDPGGYFIVNGTEK [RET1]
result: 3.26

query: Again, but for MQRHVKVDGKVRTDTTY [RPS4A]
result: 3.03

query: Again, but for ILTTAVGLVSPSFMLKH [RPN1]
result: 1.3

query: Again, but for KSFTNDKIPLNYAMTRN [SRB5]
result: 2.45

query: Again, but for EKINRMIIFLKNYDATD [CSI1]
result: 2.38

query: Again, but for FFNGKALNNAIPGGPKF [PRP8]
result: 2.87

query: Again, but for VKAILMQRHVKVDGKVR [RPS4A]
result: 3.55

query: Again, but for SINKNNKEMHTDLGKDI [SSN2]
result: 3.21

query: Again, but for KSDTVTSASQPFKFGKT [YOR098C/NUP1]
result: 1.62

query: Again, but for CESCSTILCTPTGGKAK [RPS27A]
result: 2.1

query: Again, but for LEVANDLQLLYVESDED [IRR1]
result: 1.42

query: Again, but for LLESYKTLSLKSMASAF [RPN7]
result: 1.89

query: Again, but for PSTDKNEKKTETNAKPF [YLR335W/NUP2]
result: 3.34

query: Again, but for RLFIKPGQKMSLFSHRK [BRN1]
result: 3.07

query: Again, but for DPFSIYGFSNKEYISRL [SNF5]
result: 2.69

query: Again, but for VDQEMLYEIILAANYLN [SKP1]
result: 1.92

query: Again, but for VRSANEDGTFSVLYPDE [RRP43]
result: 3.18

query: Again, but for RYVNLLGVTYSSPTLAT [PRE4]
result: 1.47

query: Again, but for KLRAARAKAMKFADGFL [RPS3]
result: 2.44

query: Again, but for KSYYLNTVMLQGIFKNS [AAR2]
result: 2.14

query: Again, but for VVAKKDFNQAKHEEIDT [RPS10A]
result: 3.22
